Target: Receptor tyrosine-protein kinase erbB-2 (Homo sapiens)
Test: reducers of endogenous Her2 protein level, primary screen, SKBR3 breast tumor cells, AlphaScreen, ATP viability (AID 461);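 note: lower value means less Her2 protein in the cells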
Conditions: 18-24 h, at 10 µM, stronger effect = lower value
Entries annotated with measured Her2 level

molecule: Cc1cnc(-c2nnc(N(C)C(=O)C3CCOC3)s2)cn1 (stereo unspecified)
unit_of_measure: %
Her2 level: 89.5
--
molecule: Cc1ccc(N2CC(C(=O)Nc3nnc(C)s3)CC2=O)cc1 (stereo unspecified)
unit_of_measure: %
Her2 level: 90
--
molecule: Cc1cc(C)n(-c2nnc(C)n2/N=C/c2ccco2)n1
unit_of_measure: %
Her2 level: 91
--
molecule: CSc1ccccc1NC(=O)c1c(Br)cnn1C
unit_of_measure: %
Her2 level: 94.5
--
molecule: CCc1cc(=O)oc2c(CN3CCN(C)CC3)c(O)c(Cl)cc12
unit_of_measure: %
Her2 level: 93.5
--
molecule: Cn1c([N+](=O)[O-])cnc1COC(N)=O
unit_of_measure: %
Her2 level: 105
--
molecule: O=C(NCc1ccco1)C(c1ccco1)N(C(=O)Cn1nnc2ccccc21)c1ccc2c(c1)CCC2 (stereo unspecified)
unit_of_measure: %
Her2 level: 92.5
--
molecule: COC(=O)COc1nc(C)c(Br)c(OC)n1
unit_of_measure: %
Her2 level: 99
--
molecule: COc1ccc(CN2C(=O)c3cccnc3C2Nc2cc(Cl)ccc2OC)cc1 (stereo unspecified)
unit_of_measure: %
Her2 level: 110
--
molecule: CCN(Cc1nc2cc(OC)c(OC)cc2c(=O)[nH]1)C(=O)c1ccc(S(=O)(=O)N(C)C)cc1
unit_of_measure: %
Her2 level: 106
--
molecule: Cc1ccc(NC(=O)C2CCCN(S(=O)(=O)c3cnc[nH]3)C2)c(Br)c1 (stereo unspecified)
unit_of_measure: %
Her2 level: 92

---

Assay: growth suppression of yeast trafficking mutant, preliminary HTS, modulators of trafficking downstream of Golgi apparatus project, 1536-format plate, OD 615 nm (AID 637)
Conditions: yeast transport mutant growth, absorbance 615 nm, 18 h
Activity calls are given as the source filed them. Rule as the data show it: active = inhibition above about 30%; inactive = the rest.
Classes used: active, inactive

compound: CN(C)C(=O)N1CCCC(C(=O)NCc2ccccc2)C1 (stereo unspecified)
assigned_label: inactive
--
compound: COC(=O)[C@@H](NC(=O)NCc1ccccc1Cl)C(C)C
assigned_label: inactive
--
compound: COC(=O)CSc1cc(C)nc(NC(C)=O)n1
assigned_label: inactive
--
compound: CCn1c(=O)c(C(=O)NCCc2ccccc2)c(O)c2ccccc21
assigned_label: inactive
--
compound: NC(=O)c1ccccc1NC(=O)CCCN1C(=O)CCC1=O
assigned_label: inactive
--
compound: Cc1nnc2sc(-c3cccc(NC(=O)c4cccnc4)c3)nn12
assigned_label: active
--
compound: CC(C)Cn1c(=O)c(C2=NS(=O)(=O)c3ccccc3N2)c(O)c2ccccc21
assigned_label: inactive
--
compound: COc1ccc(-c2nnc(SCC(=O)Nc3ccc(Cl)cc3)n2C)cc1
assigned_label: inactive
--
compound: CN(CC(=O)Nc1nccs1)S(=O)(=O)c1ccc(F)cc1
assigned_label: inactive
--
compound: CCC1Oc2ccc(C)cc2N(CC(=O)N(Cc2cccnc2)Cc2ccc(C)o2)C1=O (stereo unspecified)
assigned_label: inactive
--
compound: CCN(CC)C(=O)CSc1nc2ccccc2c(=O)n1CCC(=O)NCc1ccc(F)cc1
assigned_label: inactive
